Biological target: 17-beta-hydroxysteroid dehydrogenase type 1 (Homo sapiens) (UniProt P14061)
Sequence (whole entry): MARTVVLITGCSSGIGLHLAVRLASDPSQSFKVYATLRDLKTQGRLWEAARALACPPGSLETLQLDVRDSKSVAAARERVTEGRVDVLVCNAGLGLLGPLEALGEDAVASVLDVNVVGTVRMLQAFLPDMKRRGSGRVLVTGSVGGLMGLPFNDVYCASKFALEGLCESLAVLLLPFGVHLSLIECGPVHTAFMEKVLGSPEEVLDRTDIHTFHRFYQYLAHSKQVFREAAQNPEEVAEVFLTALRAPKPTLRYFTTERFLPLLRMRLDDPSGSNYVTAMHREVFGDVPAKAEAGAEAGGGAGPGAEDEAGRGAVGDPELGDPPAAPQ
Assay: Inhibition of human cytosolic 17beta-HSD1 using [2,4,6,7-3H]E1 as substrate at 1 uM after 10 mins by radioflow detector
measured quantity: inhibition (%)

| compound smiles | target or test system | inhibition [%] |
| --- | --- | --- |
| Cc1cc(-c2cccc(C(=O)c3cccc(O)c3)c2)ccc1O | 17-beta-hydroxysteroid dehydrogenase type 1 (Homo sapiens) (UniProt P14061) | 50 |
| Cc1cc(-c2ccc(C(=O)c3cccc(O)c3)cn2)ccc1O | 17-beta-hydroxysteroid dehydrogenase type 1 (Homo sapiens) (UniProt P14061) | 58 |
| Cc1cc(-c2ccc(C(=O)c3cccc(O)c3)cc2)ccc1O | 17-beta-hydroxysteroid dehydrogenase type 1 (Homo sapiens) (UniProt P14061) | 58 |
| O=C(c1ccc(-c2ccc(O)c(Cl)c2)cc1)c1cccc(O)c1 | 17-beta-hydroxysteroid dehydrogenase type 1 (Homo sapiens) (UniProt P14061) | 66 |
| O=C(c1ccc(-c2ccc(O)cc2Cl)cc1)c1cccc(O)c1 | 17-beta-hydroxysteroid dehydrogenase type 1 (Homo sapiens) (UniProt P14061) | 43 |
| O=C(c1ccc(F)c(O)c1)c1ccc(-c2ccc(O)c(Cl)c2)cn1 | 17-beta-hydroxysteroid dehydrogenase type 1 (Homo sapiens) (UniProt P14061) | 50 |
| Cc1cc(-c2ccc(C(=O)c3cc(O)cc(F)c3)cc2)ccc1O | 17-beta-hydroxysteroid dehydrogenase type 1 (Homo sapiens) (UniProt P14061) | 84 |
| Cc1cc(-c2ccc(C(=O)c3cccc(O)c3)nc2)ccc1O | 17-beta-hydroxysteroid dehydrogenase type 1 (Homo sapiens) (UniProt P14061) | 24 |

A = O=C(c1ccc(-c2ccc(O)c(F)c2)cc1)c1cccc(O)c1
B = Cc1cc(-c2ccc(C(=O)c3ccc(F)c(F)c3)cc2)ccc1O
Select one. Lower inhibition: A or B Refer to your chosen entry by its label in the reply.
B
(B: 16%, A: 26%)

1 = O=C(c1cccc(O)c1)c1cccc(-c2ccc(O)c(F)c2)n1
2 = Cc1cc(-c2ccc(C(=O)c3ccc(F)c(O)c3)cc2)ccc1O
Compare 1 and 2 by numeric inhibition and name the larger one. Refer to your chosen entry by its label in the reply.
2
(2: 79%, 1: 47%)

I = O=C(c1ccc(-c2ccc(O)c(Cl)c2)cc1)c1ccc(F)c(O)c1
II = O=C(c1cccc(O)c1)c1cccc(-c2ccc(O)cc2F)n1
Select one. Lower inhibition: I or II Refer to your chosen entry by its label in the reply.
II
(II: 64%, I: 95%)

* * *

Organism: Homo sapiens
Assay: Selectivity ratio of IC50 for human cytosolic 17beta-HSD1 to IC50 for human microsomal 17beta-HSD2
measured quantity: Ratio IC50

| compound smiles | Ratio IC50 |
| --- | --- |
| Cc1cc(-c2ccc(C(=O)c3cccc(O)c3)s2)ccc1O | 0.02 |
| Cc1cc(-c2ccc(C(=O)c3cc(O)cc(F)c3)cc2)ccc1O | 5 |
| O=C(c1cccc(O)c1)c1cccc(-c2ccc(O)c(Cl)c2)n1 | 81 |
| Cc1cc(-c2ccc(C(=O)c3ccc(F)c(O)c3)cc2)ccc1O | 9 |
| Cc1cc(-c2cccc(C(=O)c3ccc(F)c(O)c3)n2)ccc1O | 30 |

a = Cc1cc(-c2ccc(C(=O)c3ccc(F)c(O)c3)nc2)ccc1O
b = O=C(c1ccc(-c2ccc(O)c(Cl)c2)cc1)c1cccc(O)c1
Compare a and b by numeric Ratio IC50 and name the larger one. Refer to your chosen entry by its label in the reply.
a

I = O=C(c1ccc(-c2ccc(O)c(Cl)c2)cc1)c1ccc(F)c(O)c1
II = Cc1cc(-c2cccc(C(=O)c3cccc(O)c3)c2)ccc1O
Compare I and II by numeric Ratio IC50 and name the larger one. Refer to your chosen entry by its label in the reply.
I

A = Cc1cc(-c2ccc(C(=O)c3cccc(O)c3)cn2)ccc1O
B = O=C(c1ccc(-c2ccc(O)c(F)c2)cc1)c1cccc(O)c1
Select one. Lower Ratio IC50: A or B Refer to your chosen entry by its label in the reply.
A
(A: 3, B: 5)
